This collection of values is drawn from patent US11932639B2.

# tested_target: ALK5 (Homo sapiens, UniProt P36897)
# Construct: endogenous in cells
# Sequence (P36897 34-503): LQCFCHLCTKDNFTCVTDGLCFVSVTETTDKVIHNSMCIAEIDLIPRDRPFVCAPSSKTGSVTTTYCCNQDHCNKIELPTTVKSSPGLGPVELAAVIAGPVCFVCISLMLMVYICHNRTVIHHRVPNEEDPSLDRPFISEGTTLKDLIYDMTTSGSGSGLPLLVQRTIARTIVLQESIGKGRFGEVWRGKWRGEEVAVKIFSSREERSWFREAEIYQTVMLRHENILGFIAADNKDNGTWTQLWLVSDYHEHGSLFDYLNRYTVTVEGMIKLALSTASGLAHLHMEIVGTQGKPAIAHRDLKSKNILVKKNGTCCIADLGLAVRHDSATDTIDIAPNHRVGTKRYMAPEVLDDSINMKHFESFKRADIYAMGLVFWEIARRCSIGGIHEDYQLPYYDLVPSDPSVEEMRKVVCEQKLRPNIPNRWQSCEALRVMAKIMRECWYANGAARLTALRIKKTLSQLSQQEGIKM
# assay: Cell-based luciferase reporter assay for ALK5 activity
# experimental_parameters: (CAGA)-12-luciferase reporter, Smad 2/3-responsive promoter, 2 ng/ml TGF-β1 stimulation for 12 hours; read-out: Relative luciferase activity: IC50 value
quantity_measured: IC50

Cc1cccc(-c2[nH]c(NCc3cccc(Cl)c3F)nc2-c2ccn3ncnc3c2)n1
< 10 nM
Cc1cccc(-c2[nH]c(NCc3cccc(F)c3F)nc2-c2ccn3ncnc3c2)n1
10 to 100 nM
Cc1cccc(-c2[nH]c(CNc3ccc(Cl)c(Cl)c3)nc2-c2ccn3ncnc3c2)n1
< 10 nM
COc1cccc(CNc2nc(-c3ccn4ncnc4c3)c(-c3cccc(C)n3)[nH]2)c1F
10 to 100 nM
Cc1cccc(-c2[nH]c(NCc3ccc(Cl)cc3Cl)nc2-c2ccn3ncnc3c2)n1
10 to 100 nM
Cc1cccc(-c2[nH]c(NCc3ccccc3F)nc2-c2ccn3ncnc3c2)n1
10 to 100 nM

// field: IC50; key: "Cc1cccc(-c2[nH]c(NCc3cccc(Cl)c3F)nc2-c2ccn3nccc3c2)n1" ; value = 10 to 100 nM

// field: IC50; key: "Cc1cccc(-c2[nH]c(CNc3cccc(Cl)c3F)nc2-c2ccn3nccc3c2)n1" ; value = 10 to 100 nM

// field: IC50; key: "Cc1cccc(-c2[nH]c(NC(=O)c3ccccc3F)nc2-c2ccn3ncnc3c2)n1" ; value = 10 to 100 nM

// field: IC50; key: "Cc1cccc(-c2[nH]c(NCc3ccc(Cl)c(Cl)c3)nc2-c2ccn3ncnc3c2)n1" ; value = < 10 nM

// field: IC50; key: "Cc1cccc(-c2[nH]c(CNc3ccccc3F)nc2-c2ccn3ncnc3c2)n1" ; value = 10 to 100 nM
